Listing of entries alongside the reported hemolysis at 1 h, 800 ug/ml.
Assay: Hemolytic assay (HRBC membrane stabilization, anti-inflammatory activity)
Format: cell-based, human
Details: human, human red blood cells, 2% suspension, pH 7.4; Conc. 800 ug/ml, 2% RBC, 1 hour 37°C
Give the value, in units of %, as a plain number.

Answered cases to consult:
Could you please provide reported hemolysis at 1 h, 800 ug/ml for CC(=O)CSC1=NC(c2ccc(C#N)cc2)C(C#N)C(=O)N1 (centres unmarked) ? Thanks!
7.8

Provide only the value of recorded hemolysis at 1 h, 800 ug/ml for N#Cc1ccc(C2NC(=S)NC(=O)C2C#N)cc1 (centres unmarked)
13.2

Report hemolysis at 1 h, 800 ug/ml, nothing else, for this compound: N#Cc1ccc(C2N=C(NNc3ccccc3)NC(=O)C2C#N)cc1 (centres unmarked)
10

Give a short answer stating reported hemolysis at 1 h, 800 ug/ml for N#CCSC1=NC(c2ccc(C#N)cc2)C(C#N)C(=O)N1 (centres unmarked) .
2.3

Determine its reported hemolysis at 1 h, 800 ug/ml: N#Cc1ccc(C2N=C3SCC(=O)N3C(=O)C2C#N)cc1 (centres unmarked)
12.8

Further cases:
Complete the entry with hemolysis at 1 h, 800 ug/ml for N#Cc1ccc(C2N=C(Nc3nc4ccccc4s3)NC(=O)C2C#N)cc1 (centres unmarked)
3

Answer with the recorded hemolysis at 1 h, 800 ug/ml of CSC1=NC(c2ccc(C#N)cc2)C(C#N)C(=O)N1 (centres unmarked) only.
0.3

Read off the recorded hemolysis at 1 h, 800 ug/ml for N#Cc1ccc(C2N=C3SCC=C(N)N3C(=O)C2C#N)cc1 (centres unmarked)
5.9

Reference source: paper PMC12121771
